Values were extracted from patent US4004976A.

Test: Acute toxicity, LD 50 (method of Miller and Tainter)
Conditions: in vivo; mouse, oral application
Measurement kind: LD50

Prompt line: // Input: C=C1CC[C@@]2(OC1)O[C@H]1C[C@H]3[C@@H]4CC=C5C[C@@H](O)C[C@@H](O)[C@]5(C)[C@H]4[C@H](O)C[C@]3(C)[C@H]1[C@@H]2C . Output its LD50 only.
Response line: > 6000 mg/kg
